- System: MS2 coat protein
- Procedure Text: apparent Kd, MS2 coat protein; higher = weaker binding; RNA-MaP array; FMN 200 µM where present
- Assay Setup: ligand present: flavin mononucleotide; designed as: ON switch for flavin mononucleotide
Measurement Label: apparent Kd (nM)
Your answer should be a plain number; it is taken to be in nM.

{"Biopolymer Sequence": "AGUAAGAUGCAGAAGGUGUUAGCUAGAGCUACGACAUGAGGAUCACCCAUGUACUAAAACCCGUACAAGGAUAUGCAUCUUACA", "apparent Kd, nM": 6.47}
{"Biopolymer Sequence": "UUGGCAUCGUAGAAGGGUGACAUGAGGAUCACCCAUGUGAUGAUAUUUCUCGAGAUAUGUUGUCCAUAGGAUAUACGAGCGAAC", "apparent Kd, nM": 18.4}
{"Biopolymer Sequence": "GUGCUCGUGUGAGGAUAUGCUGCCGGGUCGGCUGCAGAAGGUACUAUUAUACAUGAGGAUCACCCAUGUCGCUUUUCUCCGGUG", "apparent Kd, nM": 44.9}
{"Biopolymer Sequence": "CUUAGGUGUACAUGAGGAUCACCCAUGUCCCUGGUCAUUAGACAGGAUAUAUGGGCGGUCGCUUCAUAGAAGGGUUAAAUGGGU", "apparent Kd, nM": 780}

Turning to the following sequence.
Noted for UUAUUUAUGUAAGGAUAUCGAUGAUAUACGCAUCCGACAUGAGGAUCACCCAUGUUUUAUUUUGUCGAGAAGGUACAUUGUCGG : its apparent Kd reads 57.1

----------
- Tested on: MS2 coat protein
- Procedure Text: apparent Kd, MS2 coat protein; higher = weaker binding; RNA-MaP array
- Assay Setup: designed as: OFF switch for flavin mononucleotide; no ligand
Measurement Label: apparent Kd (µM)
# value in µM; strip the unit string

Consider the reported apparent Kd for these sequences:
{"Biopolymer Sequence": "CUCGAGUCAGGAUAUAUUAACAGAACUUCCUAAAUGGACGAAUAGAAGGGACAUGAGGAUCACCCAUGUUUGGC", "apparent Kd (µM)": 0.0118}
{"Biopolymer Sequence": "GCACGGAAAGGAUAUACAUGAGGAUCACCCAUGUUUCUUCUCAGGGCAAUUACCACAUGUAGAAGGUUCUCCAG", "apparent Kd (µM)": 0.0294}
{"Biopolymer Sequence": "AACAUGAGGAUCACCCAUGUAGGUACUUCUCGACGGCCUACAAGAAGGUGUUGUAAAGUCAAGAACAAGGAUAUUGUGAUGGCU", "apparent Kd (µM)": 0.555}
{"Biopolymer Sequence": "CGUCUAGUUGAGAAGGAUUCGGCGUCGGUCAUGUUAAUCUGGAAACAUGAGGAUCACCCAUGUCAAUAGGAUAUCAGGGCACUA", "apparent Kd (µM)": 0.0112}
{"Biopolymer Sequence": "CCUGAACGGGACAUGAGGAUCACCCAUGUAUGAGACUCAAAGAAGGAUAUCUUACAUACAGUUCGAGAGAAGGUCUAGCAAACG", "apparent Kd (µM)": 0.0865}
{"Biopolymer Sequence": "AACACGCUGGUAGGAUAUUACAACAUGAUGACUCGUCCAAGAAACAACAUGAGGAUCACCCAUGUUAAGAAGGACCACAAGAAA", "apparent Kd (µM)": 0.00713}
{"Biopolymer Sequence": "GAACGUAGAGGAUAUACGACAAUGCACUGAUCGACGAGUACACAUGAGGAUCACCCAUGUAGAAGGCUAGGAAU", "apparent Kd (µM)": 0.00728}
{"Biopolymer Sequence": "UCACUUGUCUAGAAGGGUCGGCACAUGAGGAUCACCCAUGUAAAUGGCUGGUUCAAAUAAUUUUGACAGGAUAUAGAGAGCACU", "apparent Kd (µM)": 0.0166}

Query ACACGCUAAGGAUAUACAUGAGGAUCACCCAUGUUAAAAGUUAAAUAGGAAUGAUACCGUAGAAGGUAGGAUGA yields apparent Kd of 0.0132

Kindly note the recorded apparent Kd for UCAGUUCAAGGAUAUACAUGAGGAUCACCCAUGUACCGCAAUGUAGAAAAGUGACGUAGUAGAAGGUGAAACGA , which is 0.0236

The sequence identified as AUUAUGUAAGGAUAUCGAGAAAUAAAGAAUCUAGUCAGCCACGAGAAGGAACAUGAGGAUCACCCAUGUGGAUA registered its apparent Kd at 0.0138

----------
- Tested on: MS2 coat protein
- Procedure Text: apparent Kd, MS2 coat protein; higher = weaker binding; RNA-MaP array; tryptophan 2.4 mM where present
- Assay Setup: designed as: OFF switch for tryptophan; no ligand
Listed sequences paired with reported apparent Kd
Please state the figure in nM; there is no need to write the unit.

Answered cases to consult:
{"Biopolymer Sequence": "GGCACAUAGUCGGCCGCCACUAGUGGGAAAUGGGAGAACAUGAGGAUCACCCAUGUAUUAUAGCCUAGGACCGGGACUAUGUGCC", "Readout Units": "nM", "Value Reported": 74.8}
{"Biopolymer Sequence": "CAUCCUAGUACAUGAGGAUCACCCAUGUAUCGAGGACCGGUACGGCCGCCACUCGAAUGGCGGAUCGUUAAUCCUCUAGGAUGGA", "Readout Units": "nM", "Value Reported": 10}
{"Biopolymer Sequence": "AUGUACAUGACGGCCGCCACUACACUGAAAGUGGUCCAGAACAUGAGGAUCACCCAUGUAUCAAGUAGGACCGGGUCAUGUACAU", "Readout Units": "nM", "Value Reported": 361}

Briefly, apparent Kd measured for GGCCAUGGAAACAUGGCGGCGGCGUAUGCGCGAGGACCGGUACGGCCGCCACUCGGGCGACAUGAGGAUCACCCAUGUUCCUCAU : 182

Briefly, apparent Kd measured for CUCAUCCACGCGGCCGCCACUAUAUUGUGGUGCGUAUGUGUCGUAAUACAUGAGGAUCACCCAUGUAGGACCGGGCGUGGAUGAG : 10.8

apparent Kd in this record for GGCGCUGCGUCGGCCGCCACUAGUGGGUAAUGGGUGUACAUGAGGAUCACCCAUGUAUUUUGGCCUAGGACCGGGACGUGGCGCC : 453

For record GGAUGCGGCACGGCCGCCACUGCGGUGGUGUGACAUGAGGAUCACCCAUGUUGUCAUGCGGCCCUUAGGACCGGGUGGCGUGUCC the listed apparent Kd is 46.4

The measured apparent Kd associated with CCUCAUGAACAUGAGGAUCACCCAUGUACACGAGGACCGGUACGGCCGCCACUCGAAUAAGCUAAAUAUAAAUAAUAAUAAUAGC reads 16.9

----------
- Tested on: MS2 coat protein
- Procedure Text: apparent Kd, MS2 coat protein; higher = weaker binding; RNA-MaP array
- Assay Setup: ligand present: flavin mononucleotide; designed as: OFF switch for flavin mononucleotide
Measurement Label: apparent Kd (nM)
Supply the numeric figure in nM, leaving out any unit text.

{"Biopolymer Sequence": "GAGCUCCACAAGAAGGGCCGUUGCCCAUGGAAGGACGGCACAUGAGGAUCACCCAUGUUGGCAGGGCAGGAUAUUGCAUUUAUU", "apparent Kd, nM": 82.8}
{"Biopolymer Sequence": "GUUGCCCAGCGAGGAUAUGUGAACCGGCUGCUCACAGAAGGCGCAAAUGAUUUUCAUUAUUCCCGACAUGAGGAUCACCCAUGU", "apparent Kd, nM": 16.3}
{"Biopolymer Sequence": "GGUGAAUUAGUGAGGAUAUGAUAGACAAACAAAAUACAGAAGGCACAUGAGGAUCACCCAUGUGACGGAGAGAA", "apparent Kd, nM": 5.93}
{"Biopolymer Sequence": "CUCGAGUCAGGAUAUAUUAACAGAACUUCCUAAAUGGACGAAUAGAAGGGACAUGAGGAUCACCCAUGUUUGGC", "apparent Kd, nM": 11}
{"Biopolymer Sequence": "AUCAGUCAAGAAGGAUAUGCAAUAUCCUGGCACGUAGACAUGAGGAUCACCCAUGUGCAGGCUAAGCAGAAGGUCUUAGAAGGU", "apparent Kd, nM": 9.8}
{"Biopolymer Sequence": "AGAAAUGUAUUAGGAUAUUGGCGCGUAUUACGACAAGAAGGAAUACAUGAGGAUCACCCAUGUAACCCGCUCCGCGGUCCAUGG", "apparent Kd, nM": 64.3}

Entry under test: CGUCUAGUUGAGAAGGAUUCGGCGUCGGUCAUGUUAAUCUGGAAACAUGAGGAUCACCCAUGUCAAUAGGAUAUCAGGGCACUA . Its apparent Kd was 12.8

sequence UCACAACUAGGAUAUUUAGUGCUAUACAUGAGGAUCACCCAUGUCGUGUGCACUAGUACGAAAGAAGGAGUUAUCG , apparent Kd observed: 5.21

----------
- Tested on: MS2 coat protein
- Procedure Text: apparent Kd, MS2 coat protein; higher = weaker binding; RNA-MaP array
- Assay Setup: ligand present: flavin mononucleotide; designed as: OFF switch for flavin mononucleotide
Measurement Label: apparent Kd (µM)
# value in µM; strip the unit string

Record excerpt, results attached:
{"Biopolymer Sequence": "GGUACCGCGGUGAGGAUAUCCUGCGUUUGGCAGCUGGAGAAGGCACAUGAGGAUCACCCAUGUAAAGAGAAUGC", "apparent Kd / µM": 0.0162}
{"Biopolymer Sequence": "AUGAAACAUGAGGAUCACCCAUGUGAGGAUAUGGUCUCGAACAAAAUACAAACACCAUCCAGAAGGCACAUGAA", "apparent Kd / µM": 0.0277}

Record AUUAUGUAAGGAUAUCGAGAAAUAAAGAAUCUAGUCAGCCACGAGAAGGAACAUGAGGAUCACCCAUGUGGAUA / MS2 coat protein, apparent Kd recorded as 0.0122
